TEST SYSTEM: HIV-1 Env of DU422.01 (HIV-1)
ASSAY PROCEDURE: cell-based or functional assay
VALUE KIND: neutralization IC50

Short answer for CAP256-VRC26.12 (antibody, V domains shown) VH: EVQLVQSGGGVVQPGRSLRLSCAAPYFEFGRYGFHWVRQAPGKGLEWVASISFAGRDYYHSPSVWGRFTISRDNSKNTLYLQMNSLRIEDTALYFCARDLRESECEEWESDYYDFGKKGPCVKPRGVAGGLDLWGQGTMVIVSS VL: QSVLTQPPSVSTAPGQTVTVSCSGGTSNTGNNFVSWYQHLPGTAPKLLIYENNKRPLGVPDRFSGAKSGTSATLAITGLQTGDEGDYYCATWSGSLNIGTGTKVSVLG : neutralization IC50 was > 50 µg/mL

Short answer for CAP256-VRC26.05 (antibody, V domains shown) VH: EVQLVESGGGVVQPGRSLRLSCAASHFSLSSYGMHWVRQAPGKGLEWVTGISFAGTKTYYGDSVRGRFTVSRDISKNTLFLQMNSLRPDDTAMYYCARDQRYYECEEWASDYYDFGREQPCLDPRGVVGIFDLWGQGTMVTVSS VL: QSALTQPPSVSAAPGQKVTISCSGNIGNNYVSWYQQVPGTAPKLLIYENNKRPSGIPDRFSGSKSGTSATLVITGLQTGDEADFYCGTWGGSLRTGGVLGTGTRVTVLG : neutralization IC50 was > 50 µg/mL
